The following molecules are shown together with reported TGI values.
- Test system: DLD-1 colon
- method.notes: NCI tumour cell line growth inhibition, 48 h

Worked cases, answers included:
1) CCCSCC(P(=O)(O)O)P(=O)(O)O = > 100 µM
2) c1ccc(COc2cccc3ccc[n+](Cc4ccccc4)c23)cc1 = > 100 µM

Now examine the next entry.
Asked: Could you share what TGI was measured for CC(=O)/C(=C\c1cccc([N+](=O)[O-])c1)C(=O)Nc1ccccc1C , tested on DLD-1 colon?
Given back: > 100 µM

====

- Tested on: A498 renal
- method.notes: NCI tumour cell line growth inhibition, 48 h
measured.property: TGI (µM)
Write the value in µM as a bare number.

Worked cases, answers included:
1) Cc1cc2c(cc1Cl)SC(N(N(C)C)S(=O)(=O)c1ccc(Cl)cc1)=NS2(=O)=O = 37.6
2) CC1OC(OC2C(OC(=O)[C@]34CCC(C)(C)C[C@H]3C3=CC[C@@H]5[C@@]6(C)CC[C@H](OC7OC(C(=O)O)C(O)C(O)C7O)C(C)(C)[C@@H]6CC[C@@]5(C)[C@]3(C)C[C@H]4O)OCC(O)C2O)C(O)C(OC2OCC(O)(CO)C2O)C1OC1OCC(O)C(O)C1O (stereo partly specified) = 3.47
3) COc1ccc2c(c1)/C(=C\c1c(Cl)nc3sc(C)cn13)C(=O)N2 = 16.6
4) CC(=O)OC1COC(n2ccc3cc(Br)c([N+](=O)[O-])cc32)C(OC(C)=O)C1OC(C)=O (stereo unspecified) = 78.9

Asked: Value lookup for TGI; key = O=C(CSc1ccc(Cl)cc1)Nc1ccc(-c2nc3ccccc3s2)c(Cl)c1
Given back: 6.34

Asked: Value lookup for TGI; key = N=C(N)SCc1ccc2c(c1)Sc1ccccc1O2
Given back: 52.3

Asked: Value lookup for TGI; key = Cc1cc(C(=O)CCCCOc2ccc(C3=NCCO3)cc2)c(C)n1C
Given back: 86.8

Asked: Value lookup for TGI; key = N=Nc1c(OC(=O)Nc2cccc(Cl)c2)[nH]c2ccccc12
Given back: 26.1

Asked: Value lookup for TGI; key = ClCc1cccc(Cn2cnc3ncnc(Cl)c32)c1
Given back: 35.9

====

- Tested on: NCI-H522 lung
- method.notes: NCI tumour cell line growth inhibition, 48 h
measured.property: TGI

Worked cases, answers included:
1) CCCCC(C(=O)NCCNC(=O)CCC(=O)N(C)O)C(=O)NCCNC(=O)CCC(=O)N(C)O = > 100 µM
2) Cc1cc2c(cc1Cl)SC(N(N(C)C)S(=O)(=O)c1ccc(Cl)cc1)=NS2(=O)=O = 43.9 µM
3) Cc1cc(O)c(/C=N/C(=S)NCc2ccccc2)c(=O)o1 = > 100 µM
4) COc1cccc(-c2nc(-c3ccc(NC(=O)C(C)C)cc3)[nH]c2-c2ccnc(Br)c2)c1 = > 100 µM
5) CCCCCCN(CCCCCC)C(=O)Cc1c2n(c3ccccc13)Cc1ccccc1-2 = > 100 µM

Asked: Value lookup for TGI; key = CC1(C)CCCC2OC2CCC(C)(C)C1=O (stereo unspecified)
Given back: > 100 µM

Asked: Value lookup for TGI; key = CSc1nsc(-c2ccccc2)[s+]1
Given back: > 100 µM

Asked: Value lookup for TGI; key = N#CC(C#N)=CNC(N)=S
Given back: > 100 µM

====

The following molecules are shown together with reported TGI values.
- System: SK-MEL-28 melanoma
- method.notes: NCI tumour cell line growth inhibition, 48 h

Asked: Value lookup for TGI; key = CN1CSC(=S)N(c2c3ccccc3nc3ccc(Br)cc23)C1
Given back: 35.2 µM

Asked: Value lookup for TGI; key = CCCC(=O)OC1CC(n2cc(F)c(=O)[nH]c2=O)OC1COP(=O)(OCC(Cl)(Cl)Cl)OCC(Cl)(Cl)Cl (stereo not given)
Given back: > 62.4 µM

Asked: Value lookup for TGI; key = COc1c(Cl)c(=O)oc2ccc(Cl)cc12
Given back: > 100 µM

====

The following molecules are shown together with reported TGI values.
- Test system: COLO 205 colon
- method.notes: NCI tumour cell line growth inhibition, 48 h

Worked cases, answers included:
1) COc1ccc2c(c1)OCC1Cc3ccccc3OC21 (stereo not drawn) = > 100 µM
2) O=C(O)/C=C(/C(=O)O)C12CCN3CC4=CCOC5CC(=O)NC1C5C4CC32 (stereo not drawn) = > 100 µM
3) CCN(CC)c1ccc(-c2cc(-c3cc(OC)c(OC)c(OC)c3)nc(N3CCOCC3)c2C#N)cc1 = 7.48 µM
4) CCc1cc(Cc2cc(CC)c(NC(=O)C(=O)Cc3ccccn3)c(CC)c2Cl)c(Cl)c(CC)c1NC(=O)C(=O)Cc1ccccn1 = > 100 µM
5) CCN1c2ccccc2C(C(SC)S(=O)(=O)c2ccc(C)cc2)c2c1[nH]c(=O)n(C)c2=O (stereo not drawn) = > 100 µM
6) CO[C@H]1/C=C(/C)CCC[C@H](C)[C@H](O)[C@@H](C)C(=O)C(C)(C)[C@@H](O)CC(=O)O[C@@H]1/C(C)=C/c1csc(C)n1 = 0.0755 µM
7) CCOC(=O)c1ccc(NCC#CCN2CCOCC2)cc1 = > 100 µM

Now examine the next entry.
Asked: Could you share what TGI was measured for COc1cccc2c(=O)oc(-c3ccc(C(C)(C)C)cc3)nc12 , tested on COLO 205 colon?
Given back: > 100 µM

====

- Tested on: SK-MEL-2 melanoma
- method.notes: NCI tumour cell line growth inhibition, 48 h; in the data active = GI50 below about 0.43 µM; inactive = the rest
Response enum: 1 for active, 0 for inactive

// known answers, use as guide
1) COc1cc(/C=C/c2cc(O)c(C(C)=O)c(O)c2)cc2c1O[C@]1(C)CC[C@@H](O)C(C)(C)[C@H]1C2 = 0
2) [Cl-].[La+3].[O-]/N=C(\c1ccccc1)c1ccccn1.[O-]/N=C(\c1ccccc1)c1ccccn1.[O-]/N=C(\c1ccccc1)c1ccccn1 = 0
3) C=C1C(=O)O[C@H]2[C@H]1CC/C(COC(=O)c1c[nH]c3ccccc13)=C\CC[C@@]1(C)O[C@@H]21 = 1

Asked: Could you kindly confirm the outcome this assay logged for Cc1cc(-c2ccc3nc(C4CCOCC4)n(CCOC(F)(F)F)c3c2)cn(C)c1=O ?
Given back: 0

====

- System: 786-0 renal
- method.notes: NCI tumour cell line growth inhibition, 48 h; in the data active = GI50 below about 0.43 µM; inactive = the rest
Response enum: Yes (active), No (inactive)

// known answers, use as guide
1) C[C@@H]1CCC2[C@@H](C)[C@@H](OCC(CO[C@H]3OC4O[C@@]5(C)CC[C@H]6[C@H](C)CCC([C@H]3C)[C@@]46OO5)OC(=O)CCC(=O)O)OC3O[C@@]4(C)CC[C@@H]1[C@]32OO4 (stereo partly drawn) = Yes
2) Cc1cc(/C=C/c2ccc3cc(N(C)C)ccc3[n+]2C)c(C)n1-c1ccccc1 = Yes
3) ClCc1cccc(Cn2cnc3ncnc(Cl)c32)c1 = No
4) OCCCCCNCc1cc2cc3c(cc2c2cc(OCc4ccccc4)ccc12)OCO3 = No
5) O=C1OC(O)[C@@H]2[C@H]1[C@H]1CC[C@@H]2O1 (stereo partly drawn) = No
6) C=C1C(=O)O[C@H]2[C@H]1CC/C(COC(=O)c1c[nH]c3ccccc13)=C\CC[C@@]1(C)O[C@@H]21 = Yes
7) Nc1ncnc2c1nnn2C1OC(CO)C(O)C1O (stereo not drawn) = Yes
8) COc1ccc([C@H]2[C@@H](F)C(=O)N2c2cc(OC)c(OC)c(OC)c2)cc1F = Yes
9) Cc1cccc(NC(=O)Cn2cnc3sc(C(=O)OC(C)C)c(C)c3c2=O)c1 = No
10) O=C(CCc1nnc2sc(-c3ccc(Cl)cc3Cl)nn12)c1nc2ncccc2[nH]1 = No

Asked: Could you kindly confirm the outcome this assay logged for [Cl-].[La+3].[O-]/N=C(\c1ccccc1)c1ccccn1.[O-]/N=C(\c1ccccc1)c1ccccn1.[O-]/N=C(\c1ccccc1)c1ccccn1 ?
Given back: No

Asked: Could you kindly confirm the outcome this assay logged for COc1cc2c3c(n(C)c(=O)c2cc1OC)-c1cc2c(cc1/C3=C\CCN)OCO2 ?
Given back: Yes

Asked: Could you kindly confirm the outcome this assay logged for O=c1c2sccc2n(CC2COc3ccccc3O2)c(=O)n1O (stereo not drawn) ?
Given back: No

====

The following compounds are shown together with reported TGI values.
- Test system: SK-MEL-2 melanoma
- method.notes: NCI tumour cell line growth inhibition, 48 h

1) CC1=NN(c2cccc(Cl)c2)C2(SCC(=O)N2c2nc3ccccc3s2)/C1=C\c1ccccc1O (centres undefined) = 44.2 µM
2) COc1ccc2c(c1)/C(=C\c1c(Cl)nc3sc(C)cn13)C(=O)N2 = 8.41 µM
3) NS(=O)(=O)c1cc2c(cc1Cl)NC(CCC(=O)O)=NS2(=O)=O = > 100 µM
4) CCN1c2ccccc2C(C(SC)S(=O)(=O)c2ccc(C)cc2)c2c1[nH]c(=O)n(C)c2=O (centres undefined) = > 100 µM

Asked: Could you share what TGI was measured for O=C(CCc1nnc2sc(-c3ccc(Cl)cc3Cl)nn12)c1nc2ncccc2[nH]1 , tested on SK-MEL-2 melanoma?
Given back: 7.27 µM

Asked: Could you share what TGI was measured for Cc1ccc(S(=O)(=O)Nc2ccccc2C(=O)c2ccc(C)c(C)c2)cc1 , tested on SK-MEL-2 melanoma?
Given back: > 100 µM

Asked: Could you share what TGI was measured for CSC(=S)N(C)C , tested on SK-MEL-2 melanoma?
Given back: > 100 µM
